IC50 values, listed per item
target: full length mouse TREX1 (Mus musculus, UniProt Q91XB0); construct: N-terminally His-Tev tagged full length mouse TREX1; made in house; host or cells: E. coli; experiment: mTREX1 Biochemical Assay (fluorescence, dsDNA substrate degradation); conditions: biochemical, read-out: mTREX1 IC50

Prompt: Query: IC50; subject: CC(c1nc(C(=O)Nc2cnoc2)c(O)c(=O)n1C)C(c1ccccc1Cl)c1cnn(C)c1C#N (single isomer, unassigned) [Example 96 D1E2]
Completion: > 10 nM

Prompt: Name the reported IC50 value associated with the compound Cc1cnc(C(c2cc(F)ccc2C#N)C(C)c2nc(C(=O)Nc3cnoc3)c(O)c(=O)n2C)cn1 (single isomer, unassigned) [Example 115 D2E2]
Completion: > 10 nM

Prompt: Entry under review: CCn1cc(C(c2ccccc2C#N)C(C)c2nc(C(=O)Nc3cnoc3)c(O)c(=O)n2C)cn1 (single isomer, unassigned) [Example 13 D2E2] . Reported IC50?
Completion: > 10 nM

* * *

Target: full length mouse TREX1 (Mus musculus)
Construct: N-terminally His-Tev tagged full length mouse TREX1; made in house; host or cells: E. coli
Sequence (Q91XB0 1-314): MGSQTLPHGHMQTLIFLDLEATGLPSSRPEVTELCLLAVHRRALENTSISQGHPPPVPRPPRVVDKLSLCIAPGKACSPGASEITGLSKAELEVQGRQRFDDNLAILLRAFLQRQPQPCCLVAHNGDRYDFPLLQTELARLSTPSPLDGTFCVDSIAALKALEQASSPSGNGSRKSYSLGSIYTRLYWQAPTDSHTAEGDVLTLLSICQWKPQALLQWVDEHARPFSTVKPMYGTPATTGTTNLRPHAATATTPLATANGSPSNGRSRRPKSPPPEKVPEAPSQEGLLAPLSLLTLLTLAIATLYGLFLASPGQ
Assay: mTREX1 Biochemical Assay (fluorescence, dsDNA substrate degradation)
Details: biochemical, read-out: mTREX1 IC50
Some compounds, each annotated with its measured IC50.

Prompt: // query IC50 value for entry COCCCn1cc(C(c2ccccc2C#N)C(C)c2nc(C(=O)Nc3cnoc3)c(O)c(=O)n2C)cn1 (single isomer, unassigned) [Example 24 D2E1]
Completion: > 10 nM

* * *

Listed here are molecules together with their documented IC50.
target: full length human TREX1 (Homo sapiens, UniProt Q9NSU2); construct: N-terminally His-Tev tagged full length human TREX1; made in house; host or cells: E. coli; experiment: hTREX1 Biochemical Assay (fluorescence, dsDNA substrate degradation); details: biochemical, read-out: hTREX1 IC50

Example entries and their recorded answers appear below.
CC(c1nc(C(=O)Nc2cnoc2)c(O)c(=O)n1C)C(c1cnn(C)c1)c1cc(F)ccc1C#N (single isomer, unassigned) [Example 14 D2E1] = > 10 nM
CCn1cc(C(c2cc(F)c(F)cc2Cl)C(C)c2nc(C(=O)Nc3cnoc3)c(O)c(=O)n2C)cn1 (single isomer, unassigned) [Example 72 D1E1] = < 1 nM
CC(c1nc(C(=O)Nc2cnoc2)c(O)c(=O)n1C)C(c1cnn(C)c1)c1ccc(C(F)(F)F)cc1C#N (single isomer, unassigned) [Example 30 D1E2] = > 10 nM

Prompt: Returns the measured IC50 for the input molecule. Input: CC(c1nc(C(=O)Nc2cnoc2)c(O)c(=O)n1C)C(c1cnccn1)c1ccccc1C#N (single isomer, unassigned) [Example 66 D1E2]
Completion: 1 to 10 nM

Prompt: Form field: reported IC50 of Cc1cc(C(c2ccccc2C#N)C(C)c2nc(C(=O)Nc3cnoc3)c(O)c(=O)n2C)ccn1 (single isomer, unassigned) [Example 6 D2E2]
Completion: 1 to 10 nM

Prompt: I am curious: what IC50 value has been reported for CC(c1nc(C(=O)Nc2cnoc2)c(O)c(=O)n1C)C(c1cnn(CCN2CCN(C(=O)OC(C)(C)C)CC2)c1)c1ccccc1C#N (single isomer, unassigned) [Example 21 D2E1] ?
Completion: > 10 nM

* * *

Measured pIC50 of individual entries
Molecular target: full length human TREX1 (Homo sapiens)
Construct: N-terminally His-Tev tagged full length human TREX1; made in house; host or cells: E. coli
Sequence (Q9NSU2 1-314): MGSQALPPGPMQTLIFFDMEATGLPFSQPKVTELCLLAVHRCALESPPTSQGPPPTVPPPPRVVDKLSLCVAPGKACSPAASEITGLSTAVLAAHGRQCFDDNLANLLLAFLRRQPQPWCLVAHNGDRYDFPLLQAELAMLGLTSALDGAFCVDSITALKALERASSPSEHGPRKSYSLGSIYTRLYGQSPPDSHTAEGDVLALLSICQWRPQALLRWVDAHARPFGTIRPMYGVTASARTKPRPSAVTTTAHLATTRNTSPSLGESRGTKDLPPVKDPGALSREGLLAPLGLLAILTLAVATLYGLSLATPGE
Assay: hTREX1 Biochemical Assay (fluorescence, dsDNA substrate degradation)
Conditions: biochemical, read-out: hTREX1 IC50
pIC50: −log10 of the molar value.

CC(c1nc(C(=O)Nc2cnoc2)c(O)c(=O)n1C)C(c1cnc(C(F)(F)F)cn1)c1ccccc1C#N (single isomer, unassigned) [Example 118 D1E2] = < 8.00
Cc1ncc(C(c2ccccc2C#N)C(C)c2nc(C(=O)Nc3cnoc3)c(O)c(=O)n2C)cn1 (single isomer, unassigned) [Example 67 D1E1] = < 8.00
Cc1n[nH]c(C)c1C(c1ccccc1C#N)C(C)c1nc(C(=O)Nc2cnoc2)c(O)c(=O)n1C (single isomer, unassigned) [Example 95 D1E1] = > 9.00
CC(c1nc(C(=O)Nc2cnoc2)c(O)c(=O)n1C)C(c1cc(F)ccc1Cl)c1cn(C)nc1C#N (single isomer, unassigned) [Example 89 D1E1] = < 8.00
CC(c1nc(C(=O)Nc2cnoc2)c(O)c(=O)n1C)C(c1cnn(CCN2CCNCC2)c1)c1ccccc1C#N (single isomer, unassigned) [Example 31 D2E1] = < 8.00
CCn1cc(C(c2ccc(F)cc2C#N)C(C)c2nc(C(=O)Nc3cnoc3)c(O)c(=O)n2C)c(C)n1 (single isomer, unassigned) [Example 55 D2E2] = 8.00 to 9.00
Cc1cnc(C)c(C(c2cc(F)ccc2C#N)C(C)c2nc(C(=O)Nc3cnoc3)c(O)c(=O)n2C)n1 (single isomer, unassigned) [Example 119 D1E2] = < 8.00
CC(c1nc(C(=O)Nc2cnoc2)c(O)c(=O)n1C)C(c1cnn(CC(C)(C)C#N)c1)c1cc(F)ccc1Cl (single isomer, unassigned) [Example 99 D1E2] = 8.00 to 9.00
CC(c1nc(C(=O)Nc2cnoc2)c(O)c(=O)n1C)C(c1nnn(C)n1)c1ccccc1C#N (single isomer, unassigned) [Example 79 D1E2] = 8.00 to 9.00
Cn1cc(C(c2ccccc2C#N)C(c2nc(C(=O)Nc3cnoc3)c(O)c(=O)n2C)C(F)(F)F)cn1 (single isomer, unassigned) [Example 40 D1E2] = > 9.00

Prompt: Look up pIC50: CC(c1nc(C(=O)Nc2cnoc2)c(O)c(=O)n1C)C(c1cnn(C)c1)c1ccc(F)cc1Cl (single isomer, unassigned) [Example 74 D2E1]
Completion: < 8.00

Prompt: Look up pIC50: Cc1cnn(C(c2cc(F)ccc2Cl)C(C)c2nc(C(=O)Nc3cnoc3)c(O)c(=O)n2C)c1 (single isomer, unassigned) [Example 144 D1E1]
Completion: < 8.00

* * *

Target: full length mouse TREX1 (Mus musculus, UniProt Q91XB0)
Construct: N-terminally His-Tev tagged full length mouse TREX1; made in house; host or cells: E. coli
Test: mTREX1 Biochemical Assay (fluorescence, dsDNA substrate degradation)
Conditions: biochemical, read-out: mTREX1 IC50
Protocol: Degradation of the dsDNA liberates free fluorophore to produce a fluorescent signal. Specifically, 7.5 μL of N-terminally His-Tev tagged full length mouse TREX1 (expressed in E. coli and purified in house) in reaction buffer (50 mM Tris, 150 mM NaCl, 2 mM DTT, 0.1 mg/mL BSA, 0.01% (w/v) Tween-20, 5 mM MgCl2, pH 7.4) was added to a 384-well Black ProxiPlate Plus (PerkinElmer) which already contained compound (150 nL) at varying concentrations as a 10 point dose-response in DMSO. […]
pIC50: −log10 of the molar value.
measuredParameter: pIC50

Use these answered entries as a reference point.
Cn1cc(C(c2ccccc2C#N)C(c2nc(C(=O)Nc3cnoc3)c(O)c(=O)n2C)C(F)(F)F)cn1 (single isomer, unassigned) [Example 40 D1E1] = < 8.00
CCn1cc(C(c2ccccc2Cl)C(C)c2nc(C(=O)Nc3cnoc3)c(O)c(=O)n2C)cn1 (single isomer, unassigned) [Example 85 D2E1] = < 8.00
CC(c1nc(C(=O)Nc2cnoc2)c(O)c(=O)n1C)C(c1ccccc1Cl)n1cc2ccccc2n1 (single isomer, unassigned) [Example 141 D1E2] = < 8.00
CC(c1nc(C(=O)Nc2cnoc2)c(O)c(=O)n1C)C(c1ccccc1Cl)n1nccc1C(N)=O (single isomer, unassigned) [Example 147 D1E1] = < 8.00
CC(c1nc(C(=O)Nc2cnoc2)c(O)c(=O)n1C)C(c1cnn(CCCN(C)C)c1)c1ccccc1C#N (single isomer, unassigned) [Example 34 D1E1] = 8.00 to 9.00

Prompt: GET /values?readout=pIC50&item= CC(c1nc(C(=O)Nc2cnoc2)c(O)c(=O)n1C)C(c1ccccc1Cl)n1cnc2ccccc21 (single isomer, unassigned) [Example 143 D1E1]
Completion: 8.00 to 9.00

Prompt: Entry COCCn1cc(C(c2ccccc2C#N)C(C)c2nc(C(=O)Nc3cnoc3)c(O)c(=O)n2C)c(C)n1 (single isomer, unassigned) [Example 71 D2E1] has what pIC50?
Completion: < 8.00

Prompt: # query: pIC50 of entry CC(c1nc(C(=O)Nc2cnoc2)c(O)c(=O)n1C)C(c1cnn(C)c1)c1cc(F)c(F)cc1C#N (single isomer, unassigned) [Example 25 D1E2]
Completion: < 8.00

Prompt: I have this compound here, Cc1cncc(C(c2ccccc2C#N)C(C)c2nc(C(=O)Nc3cnoc3)c(O)c(=O)n2C)n1 (single isomer, unassigned) [Example 53 D1E2] , and I need its recorded pIC50.
Completion: 8.00 to 9.00

Prompt: Value lookup for pIC50; key = CC(c1nc(C(=O)Nc2cnoc2)c(O)c(=O)n1C)C(c1cnn(CC(C)(C)O)c1)c1ccccc1Cl (single isomer, unassigned) [Example 86 D2E2]
Completion: < 8.00

Prompt: Fill in the blank: the reported pIC50 of CC(c1nc(C(=O)Nc2cnoc2)c(O)c(=O)n1C)C(c1ccccc1C#N)c1nnnn1C (single isomer, unassigned) [Example 131 D1E1] is ____.
Completion: < 8.00

Prompt: Form field: reported pIC50 of CC(c1nc(C(=O)Nc2cnoc2)c(O)c(=O)n1C)C(c1cnn(C(F)F)c1)c1ccccc1C#N (single isomer, unassigned) [Example 38 D1E1]
Completion: > 9.00
